# System: MCF7
# Experiment summary: Cytotoxicity against human MCF7 cells after 72 hrs by MTT assay
# Format: functional, cell-based
# Test context: MCF7, 72 h
Quick reference for log10(IC50) among some compounds
Reported property: log10(IC50) (log10 of the value in µM)

>>> measured_number("COc1ccc(/C=C2\\CCC/C(=C\\c3ccc(OC)c(OC)c3)C2=O)cc1OC")
1.13
>>> measured_number("COc1cccc(/C=C2\\CCC/C(=C\\c3ccccc3Cl)C2=O)c1OC")
1.05
>>> measured_number("COc1cccc(/C=C2\\CCC/C(=C\\c3ccc(O)c(Cl)c3)C2=O)c1OC")
1.21
>>> measured_number("COc1cccc(/C=C2\\CCC/C(=C\\c3cccc(Br)c3)C2=O)c1OC")
1.07
>>> measured_number("COc1ccc(/C=C2\\CCC/C(=C\\c3cccc(OC)c3OC)C2=O)cc1")
1.27
>>> measured_number("COc1cccc(/C=C2\\CCC/C(=C\\c3cc(Cl)cc(Cl)c3)C2=O)c1OC")
0.63
>>> measured_number("COc1ccc(/C=C2\\CCC/C(=C\\c3cc(OC)c(OC)c(OC)c3)C2=O)cc1OC")
0.20
>>> measured_number("COc1ccc(/C=C2\\CCC/C(=C\\c3ccc(O)c(O)c3)C2=O)cc1OC")
1.16
>>> measured_number("COc1ccc(/C=C2\\CCC/C(=C\\c3cccc(Cl)c3Cl)C2=O)cc1OC")
1.16
>>> measured_number("COc1ccc(/C=C2\\CCC/C(=C\\c3ccc(Br)cc3)C2=O)cc1OC")
0.84
>>> measured_number("COc1ccc(/C=C2\\CCC/C(=C\\c3cc(Cl)cc(Cl)c3)C2=O)cc1OC")
0.58
>>> measured_number("COc1cccc(/C=C2\\CCC/C(=C\\c3ccc(Br)cc3)C2=O)c1OC")
1.14
>>> measured_number("COc1cc(/C=C/C(=O)CC(=O)/C=C/c2ccc(O)c(OC)c2)ccc1O")
0.99
>>> measured_number("COc1ccc(/C=C2\\CCC/C(=C\\c3ccc(OC)c(OC)c3)C2=O)c(OC)c1")
1.19
>>> measured_number("COc1ccc(/C=C2\\CCC/C(=C\\c3cccc(Br)c3)C2=O)cc1OC")
0.72
>>> measured_number("COc1cccc(/C=C2\\CCC/C(=C\\c3cccc(OC)c3OC)C2=O)c1OC")
0.70
>>> measured_number("COc1ccc(/C=C2\\CCC/C(=C\\c3ccc(OC)c(OC)c3)C2=O)cc1")
0.89
>>> measured_number("COc1cccc(/C=C2\\CCC/C(=C\\c3cccc(OC)c3OC)C2=O)c1")
0.77
